B1: library; a variant is named by its letters at N, in order (parent)
chain: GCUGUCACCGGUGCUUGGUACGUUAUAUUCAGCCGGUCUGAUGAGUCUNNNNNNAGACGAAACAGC

Variants of: B1
Assay: normalized RNA/DNA level with ligand (relative to sTRSVctl = 100) (log10 (% of sTRSVctl)); HEK293T overexpressing SLC46A1; ligand concentration (+) RNA-Seq: 6 mM; higher = less ribozyme self-cleavage, higher mRNA level
Conditions: with (6R,S)-folinic acid; ligand present: yes
The threshold is inclusive: normalized RNA/DNA level with ligand (log10) of exactly 2 counts as criterion met; values below receive criterion not met.

Look over these answered cases.
Query: Answer whether normalized RNA/DNA level with ligand (log10) of GCUGUCACCGGUGCUUGGUACGUUAUAUUCAGCCGGUCUGAUGAGUCUAUAGGGAGACGAAACAGC [AUAGGG] is greater than or equal to 2.
Reply: criterion not met

Query: Answer whether normalized RNA/DNA level with ligand (log10) of GCUGUCACCGGUGCUUGGUACGUUAUAUUCAGCCGGUCUGAUGAGUCUGGUCCUAGACGAAACAGC [GGUCCU] is greater than or equal to 2.
Reply: criterion met

Query: Answer whether normalized RNA/DNA level with ligand (log10) of GCUGUCACCGGUGCUUGGUACGUUAUAUUCAGCCGGUCUGAUGAGUCUUAAAUCAGACGAAACAGC [UAAAUC] is greater than or equal to 2.
Reply: criterion met

Query: Answer whether normalized RNA/DNA level with ligand (log10) of GCUGUCACCGGUGCUUGGUACGUUAUAUUCAGCCGGUCUGAUGAGUCUGGUCUCAGACGAAACAGC [GGUCUC] is greater than or equal to 2.
Reply: criterion met

Consider the record given below.
Query: Answer whether normalized RNA/DNA level with ligand (log10) of GCUGUCACCGGUGCUUGGUACGUUAUAUUCAGCCGGUCUGAUGAGUCUAGGCUAAGACGAAACAGC [AGGCUA] is greater than or equal to 2.
Reply: criterion met
